The measured values listed here are drawn from ChEMBL document CHEMBL4270595.

System: MCF7
TEST METHOD NOTES: Cytotoxicity against human MCF7 cells after 24 hrs by SRB assay
Format: functional, cell-based
ASSAY SETUP: MCF7, 24 h
pIC50: −log10 of the molar value.
We begin with a simple list: items and their reported pIC50.
PROPERTY LABEL: pIC50

1. O=C1Nc2ccc(S(=O)(=O)N3CCOCC3)cc2/C1=N/NC(=O)c1ccccc1 : 3.38
2. COC(=O)c1ccccc1/N=C1\C(=O)Nc2ccc(S(=O)(=O)N3CCOCC3)cc21 : 4.50
3. O=C1Nc2ccc(S(=O)(=O)N3CCOCC3)cc2/C1=N/c1ccc(/N=C2\C(=O)Nc3ccc(S(=O)(=O)N4CCOCC4)cc32)cc1 : 4.96
4. CC(=O)c1cccc(/N=C2\C(=O)Nc3ccc(S(=O)(=O)N4CCOCC4)cc32)c1 : 4.41
5. CC(=O)N/N=C1\C(=O)Nc2ccc(S(=O)(=O)N3CCOCC3)cc21 : 4.25
6. O=C1Nc2ccc(S(=O)(=O)N3CCOCC3)cc2/C1=N/c1ccc(Cl)cc1 : 4.35
7. O=S(=O)(c1ccc2[nH]c3nc4ccccc4nc3c2c1)N1CCOCC1 : 4.39
8. O=C1Nc2ccc(S(=O)(=O)N3CCOCC3)cc2/C1=N/c1ccc(Br)cc1 : 4.35
9. N=c1oc2ccccc2cc1C(=O)N/N=C1\C(=O)Nc2ccc(S(=O)(=O)N3CCOCC3)cc21 : 4.68
10. O=C1Nc2ccc(S(=O)(=O)N3CCOCC3)cc2C1=O : 4.17
11. Cc1ccc(/N=C2\C(=O)Nc3ccc(S(=O)(=O)N4CCOCC4)cc32)cc1 : 4.25
12. COc1ccc(C2=C(C#N)C3=NC4=Nc5ccc(S(=O)(=O)N6CCOCC6)cc5C4=NC3C(O)=C2C#N)cc1 (configuration not stated) : 4.92
13. CS(=O)(=O)CCNCc1ccc(-c2ccc3ncnc(Nc4ccc(OCc5cccc(F)c5)c(Cl)c4)c3c2)o1 : 5.30
14. N#CCC(=O)N/N=C1\C(=O)Nc2ccc(S(=O)(=O)N3CCOCC3)cc21 : 4.56
15. Cc1ccc(S(=O)(=O)N/N=C2\C(=O)Nc3ccc(S(=O)(=O)N4CCOCC4)cc32)cc1 : 4.42
16. O=C1Nc2ccc(S(=O)(=O)N3CCOCC3)cc2/C1=N/NS(=O)(=O)c1ccccc1 : 4.60
17. O=C1Nc2ccc(S(=O)(=O)N3CCOCC3)cc2/C1=N/c1ccc(C(=O)O)cc1 : 4.57
18. O=C1Nc2ccc(S(=O)(=O)N3CCOCC3)cc2/C1=N/Nc1ccccc1 : 4.52
19. O=C1Nc2ccc(S(=O)(=O)N3CCOCC3)cc2/C1=N/c1ccc(O)cc1 : 4.28
20. COc1ccc(-c2c(C#N)c(N)n(/N=C3\C(=O)Nc4ccc(S(=O)(=O)N5CCOCC5)cc43)c(=O)c2C#N)cc1 : 4.48
21. O=C1Nc2ccc(S(=O)(=O)N3CCOCC3)cc2/C1=N/c1cccc(C(F)(F)F)c1 : 4.39
22. N/N=C1\C(=O)Nc2ccc(S(=O)(=O)N3CCOCC3)cc21 : 4.33

* * *

TARGET OF ASSAY: Epidermal growth factor receptor (Homo sapiens, UniProt P00533, L858R)
Sequence (P00533 25-1210 L858R limits assumed): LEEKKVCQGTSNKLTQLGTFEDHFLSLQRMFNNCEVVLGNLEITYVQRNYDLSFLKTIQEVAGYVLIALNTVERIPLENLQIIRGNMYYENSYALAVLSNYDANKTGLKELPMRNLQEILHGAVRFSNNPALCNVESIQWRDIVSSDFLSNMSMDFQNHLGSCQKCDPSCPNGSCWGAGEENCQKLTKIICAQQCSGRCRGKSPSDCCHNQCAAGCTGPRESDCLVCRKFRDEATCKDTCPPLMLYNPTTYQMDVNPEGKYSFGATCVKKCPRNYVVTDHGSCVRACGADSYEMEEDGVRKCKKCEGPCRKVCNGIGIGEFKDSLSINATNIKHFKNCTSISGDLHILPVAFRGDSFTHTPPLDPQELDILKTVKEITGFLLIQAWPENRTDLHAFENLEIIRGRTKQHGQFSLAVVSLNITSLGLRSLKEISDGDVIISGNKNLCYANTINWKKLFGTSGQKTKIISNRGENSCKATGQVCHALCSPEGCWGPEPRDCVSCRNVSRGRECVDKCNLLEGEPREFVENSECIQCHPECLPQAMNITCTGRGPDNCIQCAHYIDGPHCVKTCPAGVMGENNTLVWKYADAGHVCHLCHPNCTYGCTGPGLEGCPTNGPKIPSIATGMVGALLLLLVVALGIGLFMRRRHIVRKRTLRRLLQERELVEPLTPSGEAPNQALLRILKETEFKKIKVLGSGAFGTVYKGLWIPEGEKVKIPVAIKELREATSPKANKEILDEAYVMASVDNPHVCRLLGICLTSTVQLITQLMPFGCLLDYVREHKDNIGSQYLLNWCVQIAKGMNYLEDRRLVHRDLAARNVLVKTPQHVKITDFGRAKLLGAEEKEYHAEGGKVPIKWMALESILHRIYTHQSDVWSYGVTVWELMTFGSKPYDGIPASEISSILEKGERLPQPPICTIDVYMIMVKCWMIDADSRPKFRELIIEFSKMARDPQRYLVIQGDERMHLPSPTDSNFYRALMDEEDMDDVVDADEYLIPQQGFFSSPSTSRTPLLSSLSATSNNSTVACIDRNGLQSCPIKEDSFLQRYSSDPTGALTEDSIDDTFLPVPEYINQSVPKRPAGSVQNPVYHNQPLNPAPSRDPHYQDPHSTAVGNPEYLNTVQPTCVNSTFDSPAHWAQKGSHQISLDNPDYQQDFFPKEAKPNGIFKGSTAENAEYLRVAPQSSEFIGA
TEST METHOD NOTES: Inhibition of recombinant human EGFR L858R mutant expressed in baculovirus infected insect cells preincubated for 5 mins followed by ATP addition and measured after 30 mins by HTRF assay
PROPERTY LABEL: IC50 (nM)

1. N#CCC(=O)N/N=C1\C(=O)Nc2ccc(S(=O)(=O)N3CCOCC3)cc21 : 33.8

* * *

TARGET OF ASSAY: Epidermal growth factor receptor (Homo sapiens)
TEST METHOD NOTES: Inhibition of EGFR in human HepG2 cells
pIC50: −log10 of the molar value.
Rule: Y for pIC50 not less than 7, N for anything less.

1. N#CCC(=O)N/N=C1\C(=O)Nc2ccc(S(=O)(=O)N3CCOCC3)cc21 : Y
2. N=c1oc2ccccc2cc1C(=O)N/N=C1\C(=O)Nc2ccc(S(=O)(=O)N3CCOCC3)cc21 : N
3. COc1ccc(-c2c(C#N)c(N)n(/N=C3\C(=O)Nc4ccc(S(=O)(=O)N5CCOCC5)cc43)c(=O)c2C#N)cc1 : N
4. O=C1Nc2ccc(S(=O)(=O)N3CCOCC3)cc2/C1=N/c1ccc(O)cc1 : N
5. O=C1Nc2ccc(S(=O)(=O)N3CCOCC3)cc2/C1=N/c1ccc(/N=C2\C(=O)Nc3ccc(S(=O)(=O)N4CCOCC4)cc32)cc1 : N
6. O=C1Nc2ccc(S(=O)(=O)N3CCOCC3)cc2/C1=N/Nc1ccccc1 : Y
